Biological target: T1, biotinylated peptide Bt-AEGPPGPQG (SEQ ID NO: 14)
T1 construct: also called biotinylated peptide 040; peptide 040
T1 peptide: Biotin-AEGPPGPQG
Assay: BIAcore, scFv over biotinylated peptide SEQ ID NO: 14 on streptavidin chip, dissociation 280 s
No end group written: not given here. *: point of attachment. Biotin = O=C1N[C@H]2[C@H](CS[C@H]2CCCCC(=O)*)N1
OBSERVABLE: koff (s⁻¹)
Write the value in s⁻¹ as a bare number.

BINDER	UNIT_NAME	koff
9A4 scFv CDR3 VH mutant clone 10C (scFv, Derived from p9A4ICAT7-1) scFv: QIQLVQSGPELKKPGETVKISCKASGYTFTDYSIHWVKQAPGKGLKWMGWINTETGEPTYADDFKGRFAFSLETSASTAYLQINNLKNEDTATYFCGRGGSLDYCGQGTTLTVSSGGGGSGGGGSGGGGSQIVLTQSPVFMSASPGEKVTMTCSASSSVSYMYWYQQKPGSSPRLLIHATSNLASGVPVRFSGGGSGTSYSLTISRMEAEDAATYYCQQWRSYTRTFGGGTKLEIIAAAHHHHHHGAAEQKLISEEDLNGAA	s⁻¹	0.0094

I'd like to know its koff. The binder in question is 9A4 scFv CDR3 VH mutant clone 18E (scFv, Derived from p9A4ICAT7-1) scFv: QIQLVQSGPELKKPGETVKISCKASGYTFTDYSIHWVKQAPGKGLKWMGWINTETGEPTYADDFKGRFAFSLETSASTAYLQINNLKNEDTATYFCARGGSLDVWGQGTTLTVSSGGGGSGGGGSGGGGSQIVLTQSPVFMSASPGEKVTMTCSASSSVSYMYWYQQKPGSSPRLLIHATSNLASGVPVRFSGGGSGTSYSLTISRMEAEDAATYYCQQWRSYTRTFGGGTKLEIIAAAHHHHHHGAAEQKLISEEDLNGAA
0.014

I'd like to know its koff. The binder in question is 9A4 scFv CDR3 VH mutant clone 15A (scFv, Derived from p9A4ICAT7-1) scFv: QIQLVQSGPELKKPGETVKISCKASGYTFTDYSIHWVKQAPGKGLKWMGWINTETGEPTYADDFKGRFAFSLETSASTAYLQINNLKNEDTATYFCARGGRLDYWGQGTTLTVSSGGGGSGGGGSGGGGSQIVLTQSPVFMSASPGEKVTMTCSASSSVSYMYWYQQKPGSSPRLLIHATSNLASGVPVRFSGGGSGTSYSLTISRMEAEDAATYYCQQWRSYTRTFGGGTKLEIIAAAHHHHHHGAAEQKLISEEDLNGAA
0.0035
